- Test system: NCI-H23 lung
- protocol: NCI-60 one-dose screen, 48 h
- test-conditions: 10 µM unless noted
Compounds without any hit were thinned out: in the full panel of roughly 83,000, 20% have a hit. Calls of active or inactive are those of the source. How the source made its calls: active means growth percent below 10; inactive means the rest.
Outcomes: true for active, false for inactive

compound	qualitative-label
CCCCCCNC(=O)Oc1ccc(/C(=C(/C)Cc2ccc(OC)cc2)c2ccc(OCCN3CCCCC3)cc2)cc1	false
COC(=O)[C@@H]1[C@H](O)[C@H](C)[C@H](O)[C@H](C)/C=C\C=C(C)C(=O)Nc2c(C)c(OC(C)=O)c3c(c2O)C(=O)C(C)=C2OCOC(=C23)C(C)=C[C@@](C)(O)[C@H](O)[C@@H](C)[C@H]1OC(C)=O	false
CCCCCCCCCCCC(=O)OC(C)C(=O)Nc1ccccc1 (stereo unspecified)	false
CCn1cnc(C[C@H](NC(=O)[C@@H](NC(=O)Nc2cc(C(F)(F)F)cc(C(F)(F)F)c2)C(C)(C)C)C(=O)OC)c1	true
CC(=O)OC1CC2C3CCC4C[C@@H](NC(=O)C=C(C)C)CC[C@]4(C)C3CC[C@]2(C)[C@H]1C(C)N(C)C (stereo partly specified)	false
COc1ccc(Cn2cc3c(c2-c2ccc(OC)cc2)CCc2cnoc2-3)cc1	true
CCCCCCCCC1OC1CCCCCCCC(=O)O (stereo unspecified)	false
O=C(Nc1ccc(-n2cc(-c3ccncc3)c(-c3ccc(Cl)c(O)c3)n2)cc1)c1ccc(Cl)c(Cl)c1	false
CC(O)CN(CC(C)O)N(CC(C)O)CC(C)O (stereo unspecified)	false
COC(=O)C(Cc1cnc[nH]1)N1CC(=O)N2[C@@H](c3ccccc3)SC[C@H]2C1=O (stereo partly specified)	false
O=C(O)CC1Cc2ccccc2C1C(=O)O (stereo unspecified)	false
O=C(Nc1cccc(Cn2c(=O)[nH]c3ccc(Oc4ncccn4)cc3c2=O)c1)c1cc(Cl)cc(Cl)c1	false
CCCC(CCC)Oc1ccc(CCCC2=C(O)c3ccccc3C(=O)C2=O)cc1	false
Cc1nc(N)sc1C(=O)NCCO	false
CCCCCCC(=O)C(C)C	false
NNC(=O)CNc1ccc2ccccc2c1	false
Oc1ccc(CN(Cc2ccc(C(F)(F)F)cc2)Cc2ccc(O)c3ncccc23)c2cccnc12	false
O=C(NCCCl)Nc1nccnc1OCc1ccc(F)cc1	false
CCCCCCCCCCN1CC2CCCCC2C1 (stereo unspecified)	false
COc1ccc(C(O)(c2ccccc2)C(C(=O)O)c2ccccc2)cc1 (stereo unspecified)	false
Cc1ccnc2c(NC(C)CCCN)cc(O)c(O)c12 (stereo unspecified)	false
